Experimental target: Cdc42 activated mutant (human), GST fusion
Protocol: constitutively active Cdc42 fluorescent GTP binding inhibition – biochemical, oxadiazole analogs, multiplex bead flow cytometry, Ki, SAR follow-up (AID 2009)
Experimental parameters: Bead-based flow cytometry, Bodipy-FL-GTP binding
Active and inactive are the calls of the source.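 Rule for the calls: active = EC50 of 30 microM or lower and a span of response of at least a set limit; inactive = the rest.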
Respond only with the outcome that fits, drawn from 1 (active), -1 (inactive)

Ask: For "COc1ccc(-c2noc(CCC(=O)N3CCN(c4cccc(Br)c4)CC3)n2)cc1" , which call appears in the assay record?
Reply: -1

Ask: For "COc1ccc(-c2noc(CCC(=O)N3CCN(c4ccc(Cl)cc4)CC3)n2)cc1" , which call appears in the assay record?
Reply: -1

Ask: For "COc1ccc(-c2noc(CCC(=O)N3CCN(c4cccc(F)c4)CC3)n2)cc1" , which call appears in the assay record?
Reply: -1

Ask: For "COc1ccc(-c2cccc(CCC(=O)N3CCN(c4cc(C)ccc4C)CC3)c2)cc1" , which call appears in the assay record?
Reply: 1

Ask: For "COc1ccc(-c2cc(CCC(=O)N3CCN(c4cc(C)ccc4C)CC3)[nH]n2)cc1" , which call appears in the assay record?
Reply: -1

Ask: For "COc1ccc(-c2noc(CCC(=O)N3CCN(c4ccccc4)CC3)n2)cc1" , which call appears in the assay record?
Reply: -1

Ask: For "Cc1ccc(C)c(N2CCN(C(=O)CCc3nc(-c4ccccc4C(F)(F)F)no3)CC2)c1" , which call appears in the assay record?
Reply: 1

Ask: For "COc1ccc(-c2noc(CCC(=O)N3CCN(c4ccccc4C(F)(F)F)CC3)n2)cc1" , which call appears in the assay record?
Reply: 1

Ask: For "COc1ccc(-c2noc(CCC(=O)N3CCN(c4ccccc4OC)CC3)n2)cc1" , which call appears in the assay record?
Reply: 1

Ask: For "Cc1ccc(C)c(N2CCN(C(=O)CCc3nc(-c4ccc(Br)cc4)no3)CC2)c1" , which call appears in the assay record?
Reply: 1

Ask: For "COc1ccc(-c2noc(CCC(=O)N3CCN(c4cc(C)ccc4C)CC3)n2)cc1" , which call appears in the assay record?
Reply: 1

Ask: For "COc1ccc(-c2noc(CCCCC(=O)N3CCN(c4cc(C)ccc4C)CC3)n2)cc1" , which call appears in the assay record?
Reply: 1

Ask: For "COc1ccc(-c2noc(CCC(=O)N3CCN(c4ccccc4Br)CC3)n2)cc1" , which call appears in the assay record?
Reply: 1

Ask: For "COc1ccc(-c2noc(CCC(=O)N3CCN(c4ccc(Br)cc4)CC3)n2)cc1" , which call appears in the assay record?
Reply: -1

Ask: For "COc1ccc(-c2noc(CCC(=O)N3CCN(c4cccc(OC)c4)CC3)n2)cc1" , which call appears in the assay record?
Reply: -1

Ask: For "Cc1ccc(C)c(N2CCN(C(=O)CCc3nc(-c4ccccc4F)no3)CC2)c1" , which call appears in the assay record?
Reply: 1

Ask: For "COc1ccc(-c2noc(CCC(=O)N3CCN(c4ccccc4F)CC3)n2)cc1" , which call appears in the assay record?
Reply: 1

Ask: For "COc1ccc(-c2noc(CCC(=O)N3CCN(c4ccc(C(F)(F)F)cc4)CC3)n2)cc1" , which call appears in the assay record?
Reply: -1

Ask: For "COc1ccc(-c2noc(CCCC(=O)N3CCN(c4cc(C)ccc4C)CC3)n2)cc1" , which call appears in the assay record?
Reply: 1

Ask: For "Cc1ccc(C)c(N2CCN(C(=O)CCc3nc(-c4cccc(C(F)(F)F)c4)no3)CC2)c1" , which call appears in the assay record?
Reply: 1
